molecular target: C-C chemokine receptor type 1 (Homo sapiens); assay: Compound was tested for inhibition of CCL3 binding to chemokine receptor-1; inactive at a concentration of 32 uM
Sequence (P32246 whole entry): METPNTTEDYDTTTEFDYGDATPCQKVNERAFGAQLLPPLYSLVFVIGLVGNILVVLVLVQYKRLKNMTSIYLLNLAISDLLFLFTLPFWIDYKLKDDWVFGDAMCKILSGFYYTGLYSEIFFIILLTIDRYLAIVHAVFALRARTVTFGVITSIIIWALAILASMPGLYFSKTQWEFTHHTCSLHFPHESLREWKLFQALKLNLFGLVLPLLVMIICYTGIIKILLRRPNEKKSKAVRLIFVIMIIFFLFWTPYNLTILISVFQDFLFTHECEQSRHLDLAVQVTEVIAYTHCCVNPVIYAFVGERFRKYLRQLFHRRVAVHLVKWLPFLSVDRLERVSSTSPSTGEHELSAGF
MEASURE NAME: IC50

CNC(=O)[C@H](CC(C)C)C[C@@H](O)[C@H](CC1CCCCC1)NC(=O)c1cnc2ccccc2c1
< 50 µM

Request: Request the reported IC50 associated with CNC(=O)[C@@H](CC(C)C)C[C@@H](O)[C@H](CC1CCCCC1)NC(=O)c1cnc2ccccc2c1
Result: < 50 µM

Request: Thanks! And CC[C@H](C)[C@H](NC(=O)c1cnc2ccccc2c1)[C@@H](O)C[C@@H](CC(C)C)C(=O)NC ?
Result: < 50 µM

Request: Check CNC(=O)[C@H](CC(C)C)C[C@@H](O)[C@@H](CC1CCCCC1)NC(=O)c1cnc2ccccc2c1 too.
Result: < 50 µM

Request: How about CNC(=O)CC[C@H](O)[C@H](CC1CCCCC1)NC(=O)c1cnc2ccccc2c1 ?
Result: < 50 µM

Request: Now give it for CNC(=O)[C@@H](CC(C)C)C[C@H](O)[C@@H](CC1CCCCC1)NC(=O)c1cnc2ccccc2c1 too.
Result: < 50 µM
